target under test: TPR-MET fusion protein (MNNGHOS cell line) (Homo sapiens, UniProt P08581)
Sequence (P08581 with tags, fused parts or gaps): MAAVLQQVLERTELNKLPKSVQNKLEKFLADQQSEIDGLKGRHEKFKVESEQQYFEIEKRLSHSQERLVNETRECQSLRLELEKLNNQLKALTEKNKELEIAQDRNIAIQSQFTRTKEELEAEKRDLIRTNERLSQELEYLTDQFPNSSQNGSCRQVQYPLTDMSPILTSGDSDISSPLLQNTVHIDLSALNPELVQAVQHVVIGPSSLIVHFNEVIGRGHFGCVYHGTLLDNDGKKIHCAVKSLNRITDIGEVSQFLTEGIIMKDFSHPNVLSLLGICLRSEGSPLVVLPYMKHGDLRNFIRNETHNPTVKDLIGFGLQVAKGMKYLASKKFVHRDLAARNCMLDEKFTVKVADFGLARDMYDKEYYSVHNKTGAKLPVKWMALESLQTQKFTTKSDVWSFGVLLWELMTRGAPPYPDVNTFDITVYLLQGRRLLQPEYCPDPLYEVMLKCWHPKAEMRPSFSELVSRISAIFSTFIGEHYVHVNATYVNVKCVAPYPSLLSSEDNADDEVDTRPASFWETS
assay overview: C-Met phosphorylation cell-based assay
condition info: read-out: C-Met cell-based Y1230-34-35 tpr-met inhibition (IC50); MNNGHOS cells; compounds 3 hours prior to cell lysis
Quick reference for IC50 among some molecules

                               query_smiles  attribute_measured        result
0  O=C(Cc1ccccc1)NC(=S)Nc1ccc(Oc2ccnc3cc(C(=O)N4CCOCC4)sc23)c(F)c1                IC50  50 to 250 nM

## Input So what's the measured IC50 for this one? `CN1CCN(C(=O)c2cc3ncnc(Oc4ccc(NC(=S)NC(=O)Cc5ccccc5)cc4F)c3s2)CC1`
## Output > 500 nM
